Test: Plasma pharmacokinetics (LC-MS/MS)
Format: in vivo, human
Conditions: human, plasma, oral, 20 mg, cycle 1, day 1; 20 mg; read-out: Tmax, median
Measurement type: Tmax (h)

>  <Mol>
CC(C)n1nc(-c2ccc3oc(N)nc3c2)c2c(N)ncnc21

>  <Measurement type>
Tmax

>  <Readout number>
2.1

$$$$

* * *

Test: Plasma pharmacokinetics (LC-MS/MS)
Format: in vivo, human
Conditions: human, plasma, oral, 6 mg, cycle 2, day 1; QDx3dQW 6 mg; read-out: Tmax, median

>  <Compound>
CC(C)n1nc(-c2ccc3oc(N)nc3c2)c2c(N)ncnc21 [Sapanisertib]

>  <Endpoint unit>
h

>  <Tmax>
4

$$$$

* * *

Assay: Plasma pharmacokinetics (LC-MS/MS)
Assay type: in vivo, human
Conditions: human, plasma, oral, 12 mg, cycle 2, day 1; QDx3dQW 12 mg; read-out: t½ (converted)

>  <Molecule>
CC(C)n1nc(-c2ccc3oc(N)nc3c2)c2c(N)ncnc21 [Sapanisertib]

>  <half-life / h>
4.9

$$$$

* * *

Test: Plasma pharmacokinetics (LC-MS/MS)
Assay type: in vivo, human
Conditions: human, plasma, oral, 2 mg, cycle 1, day 1; 2 mg

>  <Mol>
CC(C)n1nc(-c2ccc3oc(N)nc3c2)c2c(N)ncnc21

>  <Cmax [ng/mL]>
13.5

$$$$

* * *

Assay: Plasma pharmacokinetics (LC-MS/MS)
Type: in vivo, human
Conditions: human, plasma, oral, 7 mg, cycle 2, day 1; QDx5dQW 7 mg; read-out: t½ (converted)

>  <Molecule>
CC(C)n1nc(-c2ccc3oc(N)nc3c2)c2c(N)ncnc21 [Sapanisertib]

>  <half-life [min]>
402

$$$$

* * *

Assay: Plasma pharmacokinetics (LC-MS/MS)
Format: in vivo, human
Details: human, plasma, oral, 9 mg, cycle 2, day 1; QDx3dQW 9 mg; read-out: Tmax, median
Measurement type: Tmax (h)

>  <Mol>
CC(C)n1nc(-c2ccc3oc(N)nc3c2)c2c(N)ncnc21

>  <Endpoint unit>
h

>  <Readout number>
2.1

$$$$

* * *

Assay: Plasma pharmacokinetics (LC-MS/MS)
Type: in vivo, human
Conditions: human, plasma, oral, 30 mg, cycle 1, day 1; 30 mg; read-out: t½ (converted)
Experimental: Peripheral blood was collected serially to quantify plasma levels of sapanisertib for PK analysis via validated liquid chromatography tandem mass spectrometry with an assay range of 1–1000 ng/mL (MicroConstants, San Diego, CA), during both dose-escalation and expansion phases. Blood samples were collected before each dose and 0.5, 1, 2, 4, 8 and 24 h after dosing on cycle 1, day 1 and cycle 2, day 1, in the dose-escalation phase. […]

>  <Compound>
CC(C)n1nc(-c2ccc3oc(N)nc3c2)c2c(N)ncnc21 [Sapanisertib]

>  <half-life, h>
5.9

$$$$

* * *

Assay: Plasma pharmacokinetics (LC-MS/MS)
Type: in vivo, human
Details: human, plasma, oral, 6 mg, cycle 2, day 1; QD 6 mg; read-out: AUC0–24h [%CV]
Measurement type: AUC(0-t) (ng·h/mL)

>  <Mol>
CC(C)n1nc(-c2ccc3oc(N)nc3c2)c2c(N)ncnc21

>  <Endpoint unit>
ng·h/mL

>  <Readout number>
327

$$$$

* * *

Assay: Plasma pharmacokinetics (LC-MS/MS)
Type: in vivo, human
Conditions: human, plasma, oral, 30 mg, cycle 1, day 1; 30 mg; read-out: AUC0–24h [%CV]

>  <Mol>
CC(C)n1nc(-c2ccc3oc(N)nc3c2)c2c(N)ncnc21

>  <AUC(0-t) / ng·h/mL>
1080

$$$$
